Biological target: Recombinant human p65 protein (r-p65) with DDK tag (catalog number TP320780) (human) (UniProt Q04206)
Sequence (Q04206 whole entry): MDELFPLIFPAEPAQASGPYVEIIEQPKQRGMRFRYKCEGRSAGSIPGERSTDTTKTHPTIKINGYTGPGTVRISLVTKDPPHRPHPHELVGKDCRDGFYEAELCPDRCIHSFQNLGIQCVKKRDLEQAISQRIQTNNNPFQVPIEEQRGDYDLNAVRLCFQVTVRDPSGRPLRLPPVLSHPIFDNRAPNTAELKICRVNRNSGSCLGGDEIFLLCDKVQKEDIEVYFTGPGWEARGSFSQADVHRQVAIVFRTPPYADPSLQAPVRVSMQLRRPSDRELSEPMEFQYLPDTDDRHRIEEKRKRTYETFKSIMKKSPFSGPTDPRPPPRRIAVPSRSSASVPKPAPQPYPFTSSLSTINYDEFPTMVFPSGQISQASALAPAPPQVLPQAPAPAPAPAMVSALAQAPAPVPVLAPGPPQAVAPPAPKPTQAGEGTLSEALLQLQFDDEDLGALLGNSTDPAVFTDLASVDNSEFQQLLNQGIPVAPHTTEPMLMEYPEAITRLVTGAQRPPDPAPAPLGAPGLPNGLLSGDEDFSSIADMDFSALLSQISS
Assay: plate ELISA, Scatchard analysis by the method of Friguet et al.
MEASURE_NAME: pKd
Give bare numbers, as −log10 of the molar value.

Consider the following items and state reported pKd for each.
1. Ac-EPAPLAPYG-NH2 [GA-2 (GILZ analog 2, as labelled in Examples 3 to 6)]
2. Ac-APKPYQPRG-NH2 [GA-1 (GILZ analog 1, as labelled in Examples 3 to 6)]

[5.49, 5.64]
